# Tested on: ATP;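 also: ATP exposure 15 min at 22 °C before imaging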
# test-method-notes: switch fluorescence ratio, 500 uM ATP over buffer (Cy3 cluster intensity, sum of 5 cycles each) (fold (ratio)); higher = stronger signal-on switching upon ATP binding; sequences stand for … in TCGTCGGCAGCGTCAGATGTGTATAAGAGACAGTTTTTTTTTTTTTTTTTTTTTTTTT…TC
# conditions-used: aptamer strand: ATP DNA aptamer (quencher-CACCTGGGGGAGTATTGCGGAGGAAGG + anchor), 100 nM annealed; ATP concentration: 500 uM
Kindly supply the reported switch fluorescence ratio values for the records listed here.
The reply should be a number, written without any unit.

# input Reported switch fluorescence ratio, sequence "GTACGGGGAA" : ____
# output 1.04

# input Reported switch fluorescence ratio, sequence "TTTATGTTTC" : ____
# output 0.98

# input Reported switch fluorescence ratio, sequence "GTGAGTTTTT" : ____
# output 1.02

# input Reported switch fluorescence ratio, sequence "TTTGACGGGA" : ____
# output 1.01

# input Reported switch fluorescence ratio, sequence "AGGCCCTTTA" : ____
# output 1.12

# input Reported switch fluorescence ratio, sequence "ACCCGGCTTC" : ____
# output 1.02

# input Reported switch fluorescence ratio, sequence "TTTACCGGTA" : ____
# output 1.01

# input Reported switch fluorescence ratio, sequence "ATGATTACGA" : ____
# output 1.03

# input Reported switch fluorescence ratio, sequence "TATTTTAGGT" : ____
# output 1.01

# input Reported switch fluorescence ratio, sequence "AGGAGGTTCC" : ____
# output 1.02
